Molecular target: Mitogen-activated protein kinase 11 (Mus musculus, UniProt Q9WUI1)
Sequence (Q9WUI1 whole entry, the tested form may be a part): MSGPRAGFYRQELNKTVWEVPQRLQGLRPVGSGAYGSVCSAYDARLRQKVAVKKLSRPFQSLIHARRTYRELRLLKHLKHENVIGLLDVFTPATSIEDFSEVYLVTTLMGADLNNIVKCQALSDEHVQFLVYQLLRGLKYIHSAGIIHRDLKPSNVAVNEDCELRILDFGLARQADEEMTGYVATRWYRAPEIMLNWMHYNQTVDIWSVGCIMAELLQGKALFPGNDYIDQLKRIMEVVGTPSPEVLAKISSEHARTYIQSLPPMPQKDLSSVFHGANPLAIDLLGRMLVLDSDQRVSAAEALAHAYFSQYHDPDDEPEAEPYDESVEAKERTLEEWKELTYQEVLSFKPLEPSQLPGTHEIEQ
Assay: Displacement of [gamma-33P]-ATP binding from active recombinant murine FLAG-Mitogen-activated protein kinase p38 beta fusion protein (GST-ATF2)
endpoint-label: pIC50
Please express pIC50 as -log10 of the molar concentration.

Recorded results for 5 molecules are shown here.
* Cc1ccccc1N1N=C(c2c(-c3ccc(F)cc3Cl)nc3ccccn23)CCC1=O | 7.03
* Cc1ccccc1-n1nc(-c2c(-c3cccc(Cl)c3Cl)nc3ccccn23)ccc1=O | 7.36
* Cc1ccccc1-n1nc(-c2c(-c3ccc(F)cc3Cl)nc3ccccn23)ccc1=O | 7.55
* O=C1CCC(c2c(-c3ccc(F)cc3Cl)nc3ccccn23)=NN1c1c(Cl)cccc1Cl | 6.17
* O=c1ccc(-c2c(-c3ccc(F)cc3Cl)nc3ccccn23)nn1-c1ccccc1Cl | 6.77

Ask: Which pIC50 reading was recorded for the molecule "O=c1ccc(-c2c(-c3ccc(F)cc3Cl)nc3ccccn23)nn1-c1c(Cl)cccc1Cl" ?
Result: 7.19

Ask: Which pIC50 reading was recorded for the molecule "O=c1ccc(-c2c(-c3ccc(F)cc3)nc3ccccn23)nn1-c1c(Cl)cccc1Cl" ?
Result: 6.82

Ask: Which pIC50 reading was recorded for the molecule "O=C1CCC(c2c(-c3ccc(F)cc3F)nc3ccccn23)=NN1c1c(Cl)cccc1Cl" ?
Result: 7.20

Ask: Which pIC50 reading was recorded for the molecule "O=C1CCC(c2c(-c3cccc(C(F)(F)F)c3)nc3ccccn23)=NN1c1ccccc1Cl" ?
Result: 6.45

Ask: Which pIC50 reading was recorded for the molecule "O=c1ccc(-c2c(-c3cccc(Cl)c3Cl)nc3ccccn23)nn1-c1c(Cl)cccc1Cl" ?
Result: 6.05

Ask: Which pIC50 reading was recorded for the molecule "O=c1ccc(-c2c(-c3ccc(F)cc3F)nc3ccccn23)nn1-c1c(Cl)cccc1Cl" ?
Result: 6.95

Ask: Which pIC50 reading was recorded for the molecule "Cc1ccccc1-n1nc(-c2c(-c3ccc(F)cc3F)nc3ccccn23)ccc1=O" ?
Result: 6.85

Ask: Which pIC50 reading was recorded for the molecule "Cc1ccccc1N1N=C(c2c(-c3ccc(F)cc3F)nc3ccccn23)CCC1=O" ?
Result: 7.11

Ask: Which pIC50 reading was recorded for the molecule "O=C1CCC(c2c(-c3ccc(F)cc3Cl)nc3ccccn23)=NN1c1ccccc1Cl" ?
Result: 5.59

---

Target: Mitogen-activated protein kinase 9 (Homo sapiens) (UniProt P45984)
Sequence (P45984 whole entry, looked up): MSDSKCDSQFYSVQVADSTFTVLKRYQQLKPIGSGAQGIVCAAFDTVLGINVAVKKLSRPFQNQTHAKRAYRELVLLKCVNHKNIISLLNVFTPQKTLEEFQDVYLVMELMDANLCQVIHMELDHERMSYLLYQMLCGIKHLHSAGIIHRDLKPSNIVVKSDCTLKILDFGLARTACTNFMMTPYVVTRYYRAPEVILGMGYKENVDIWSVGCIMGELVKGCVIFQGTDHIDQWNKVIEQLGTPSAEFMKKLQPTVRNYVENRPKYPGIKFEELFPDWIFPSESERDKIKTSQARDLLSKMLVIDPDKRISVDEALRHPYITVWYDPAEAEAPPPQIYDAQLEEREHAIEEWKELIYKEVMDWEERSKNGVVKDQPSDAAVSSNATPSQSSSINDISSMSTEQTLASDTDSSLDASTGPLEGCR
Assay: Inhibition of recombinant human flag-tagged JNK2-beta-2 at 10000 nM
Assay type: functional
endpoint-label: inhibition (%)
Kindly answer with a numeric value in %, unit omitted.

Recorded results for 2 molecules are shown here.
* O=c1ccc(-c2c(-c3ccc(F)cc3)nc3ccccn23)nn1-c1c(Cl)cccc1Cl | 40
* O=c1ccc(-c2c(-c3cccc(C(F)(F)F)c3)nc3ccccn23)nn1-c1c(Cl)cccc1Cl | 0

Ask: Which inhibition reading was recorded for the molecule "O=C1CCC(c2c(-c3ccc(F)cc3Cl)nc3ccccn23)=NN1c1ccccc1Cl" ?
Result: 0

Ask: Which inhibition reading was recorded for the molecule "O=c1ccc(-c2c(-c3ccc(F)cc3Cl)nc3ccccn23)nn1-c1c(Cl)cccc1Cl" ?
Result: 23

Ask: Which inhibition reading was recorded for the molecule "O=C1CCC(c2c(-c3ccc(F)cc3Cl)nc3ccccn23)=NN1c1c(Cl)cccc1Cl" ?
Result: 0

Ask: Which inhibition reading was recorded for the molecule "O=C1CCC(c2c(-c3cccc(C(F)(F)F)c3)nc3ccccn23)=NN1c1ccccc1Cl" ?
Result: 0

Ask: Which inhibition reading was recorded for the molecule "Cc1ccccc1N1N=C(c2c(-c3ccc(F)cc3F)nc3ccccn23)CCC1=O" ?
Result: 4

Ask: Which inhibition reading was recorded for the molecule "Cc1ccccc1-n1nc(-c2c(-c3cccc(Cl)c3Cl)nc3ccccn23)ccc1=O" ?
Result: 15

Ask: Which inhibition reading was recorded for the molecule "O=C1CCC(c2c(-c3ccc(F)cc3F)nc3ccccn23)=NN1c1c(Cl)cccc1Cl" ?
Result: 22

Ask: Which inhibition reading was recorded for the molecule "O=c1ccc(-c2c(-c3ccc(F)cc3Cl)nc3ccccn23)nn1-c1ccccc1Cl" ?
Result: 0

---

Biological target: Mitogen-activated protein kinase 14 (Mus musculus)
Experiment: Tested in vitro for filter plate binding versus gamma-[33P]ATP in active recombinant murine FLAG-P38 alpha fusion protein (GST-Activating transcription factor-2).
Below, each entry is listed with its recorded IC50.
Kindly answer with a numeric value in nM, unit omitted.

- Cc1ccccc1-n1nc(-c2c(-c3cccc(Cl)c3Cl)nc3ccccn23)ccc1=O: 22
- Cc1ccccc1N1N=C(c2c(-c3ccc(F)cc3Cl)nc3ccccn23)CCC1=O: 14
- O=c1ccc(-c2c(-c3ccc(F)cc3Cl)nc3ccccn23)nn1-c1ccccc1Cl: 76
- O=c1ccc(-c2c(-c3ccc(F)cc3)nc3ccccn23)nn1-c1c(Cl)cccc1Cl: 49
- Cc1ccccc1-n1nc(-c2c(-c3ccc(F)cc3F)nc3ccccn23)ccc1=O: 26
- Cc1ccccc1N1N=C(c2c(-c3ccc(F)cc3F)nc3ccccn23)CCC1=O: 8

Ask: Which IC50 reading was recorded for the molecule "Cc1ccccc1-n1nc(-c2c(-c3ccc(F)cc3Cl)nc3ccccn23)ccc1=O" ?
Result: 9

Ask: Which IC50 reading was recorded for the molecule "O=C1CCC(c2c(-c3ccc(F)cc3Cl)nc3ccccn23)=NN1c1c(Cl)cccc1Cl" ?
Result: 42

---

Below, each entry is listed with its recorded pIC50.
Target: Mitogen-activated protein kinase 14 (Mus musculus, UniProt P47811)
Sequence (P47811 whole entry, the tested form may be a part): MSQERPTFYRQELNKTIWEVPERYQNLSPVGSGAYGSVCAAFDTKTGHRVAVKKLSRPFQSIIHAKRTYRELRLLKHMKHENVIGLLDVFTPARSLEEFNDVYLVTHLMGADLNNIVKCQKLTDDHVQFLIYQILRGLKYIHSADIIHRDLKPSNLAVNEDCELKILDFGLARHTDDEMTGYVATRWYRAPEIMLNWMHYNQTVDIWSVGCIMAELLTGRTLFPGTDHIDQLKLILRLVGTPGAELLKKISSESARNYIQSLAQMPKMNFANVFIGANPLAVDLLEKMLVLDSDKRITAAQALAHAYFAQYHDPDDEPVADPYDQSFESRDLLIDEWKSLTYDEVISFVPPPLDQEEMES
Assay: Tested in vitro for filter plate binding versus gamma-[33P]ATP in active recombinant murine FLAG-P38 alpha fusion protein (GST-Activating transcription factor-2).
Please express pIC50 as -log10 of the molar concentration.

Recorded results for 6 compounds are shown here.
• O=C1CCC(c2c(-c3ccc(F)cc3F)nc3ccccn23)=NN1c1c(Cl)cccc1Cl = 8.10
• O=C1CCC(c2c(-c3cccc(C(F)(F)F)c3)nc3ccccn23)=NN1c1ccccc1Cl = 6.77
• O=C1CCC(c2c(-c3ccc(F)cc3Cl)nc3ccccn23)=NN1c1ccccc1Cl = 6.68
• O=c1ccc(-c2c(-c3cccc(Cl)c3Cl)nc3ccccn23)nn1-c1c(Cl)cccc1Cl = 6.57
• O=C1CCC(c2c(-c3cccc(Cl)c3Cl)nc3ccccn23)=NN1c1c(Cl)cccc1Cl = 5.70
• O=c1ccc(-c2c(-c3ccc(F)cc3Cl)nc3ccccn23)nn1-c1c(Cl)cccc1Cl = 7.85

Ask: Hi! What's the reported pIC50 for "O=c1ccc(-c2c(-c3cccc(C(F)(F)F)c3)nc3ccccn23)nn1-c1c(Cl)cccc1Cl" on Mitogen-activated protein kinase 14 (Mus musculus, UniProt P47811)?
Result: 6.00

Ask: Hi! What's the reported pIC50 for "O=c1ccc(-c2c(-c3ccc(F)cc3F)nc3ccccn23)nn1-c1c(Cl)cccc1Cl" on Mitogen-activated protein kinase 14 (Mus musculus, UniProt P47811)?
Result: 7.66

Ask: Hi! What's the reported pIC50 for "O=c1ccc(-c2c(-c3cccc(C(F)(F)F)c3)nc3ccccn23)nn1-c1ccccc1Cl" on Mitogen-activated protein kinase 14 (Mus musculus, UniProt P47811)?
Result: 6.46

---

Molecular target: MAP kinase p38 (Homo sapiens, UniProt O15264+Q15759+Q16539+P53778)
Assay: Inhibition of Tumor necrosis factor alpha release from LPS-induced THP-1 cells by ELISA
Type: functional, cell-based
endpoint-label: log10(IC50) (log10 of the value in nM)
Field: value | Transform: log10 | Quantity: IC50 | Unit: nM

Recorded results for 5 molecules are shown here.
* Cc1ccccc1-n1nc(-c2c(-c3ccc(F)cc3F)nc3ccccn23)ccc1=O | 1.83
* O=c1ccc(-c2c(-c3ccc(F)cc3)nc3ccccn23)nn1-c1c(Cl)cccc1Cl | 1.85
* Cc1ccccc1N1N=C(c2c(-c3ccc(F)cc3Cl)nc3ccccn23)CCC1=O | 1.34
* O=c1ccc(-c2c(-c3ccc(F)cc3Cl)nc3ccccn23)nn1-c1ccccc1Cl | 2.21
* Cc1ccccc1N1N=C(c2c(-c3ccc(F)cc3F)nc3ccccn23)CCC1=O | 1.15

Ask: Hi! What's the reported log10(IC50) for "O=C1CCC(c2c(-c3ccc(F)cc3Cl)nc3ccccn23)=NN1c1c(Cl)cccc1Cl" on MAP kinase p38 (Homo sapiens, UniProt O15264+Q15759+Q16539+P53778)?
Result: 2.26

Ask: Hi! What's the reported log10(IC50) for "Cc1ccccc1N1N=C(c2c(-c3cccc(Cl)c3Cl)nc3ccccn23)CCC1=O" on MAP kinase p38 (Homo sapiens, UniProt O15264+Q15759+Q16539+P53778)?
Result: 2.23

---

Target: MAP kinase p38 (Homo sapiens, UniProt O15264+Q15759+Q16539+P53778)
Test: Inhibition of LPS-induced p38-related Tumor necrosis factor alpha release in human whole blood
Assay type: functional, tissue-based
Below, each entry is listed with its recorded IC50.
Kindly answer with a numeric value in nM, unit omitted.

Recorded results for 6 molecules are shown here.
- Cc1ccccc1-n1nc(-c2c(-c3ccc(F)cc3F)nc3ccccn23)ccc1=O: 870
- Cc1ccccc1N1N=C(c2c(-c3ccc(F)cc3Cl)nc3ccccn23)CCC1=O: 220
- O=c1ccc(-c2c(-c3ccc(F)cc3F)nc3ccccn23)nn1-c1c(Cl)cccc1Cl: 1000
- Cc1ccccc1N1N=C(c2c(-c3ccc(F)cc3F)nc3ccccn23)CCC1=O: 440
- Cc1ccccc1-n1nc(-c2c(-c3cccc(Cl)c3Cl)nc3ccccn23)ccc1=O: 500
- Cc1ccccc1-n1nc(-c2c(-c3ccc(F)cc3Cl)nc3ccccn23)ccc1=O: 100

Next molecule, IC50 to be filled in.
Ask: Which IC50 reading was recorded for the molecule "O=C1CCC(c2c(-c3ccc(F)cc3F)nc3ccccn23)=NN1c1c(Cl)cccc1Cl" ?
Result: 205
